Where do the numbers come from? From paper PMC12332266.

Entries annotated with measured hsa-miR-146b-5p fold change, intracellular
- Test system: hiPSC-CM (iCell Cardiomyocytes^2)
- Test Description: Intracellular miRNA expression by RT-qPCR in hiPSC-CM pellets after 72-hour treatment
- Run Parameters: 1 µM, 72 h
Where a name gives a salt, the structure may show the parent alone.
// return a plain number; no unit text

Compound | Reported Measurement
CC(C)C[C@H](NC(=O)[C@H](CCc1ccccc1)NC(=O)CN1CCOCC1)C(=O)N[C@@H](Cc1ccccc1)C(=O)N[C@@H](CC(C)C)C(=O)[C@@]1(C)CO1 | 0.08
Cc1nc(Nc2ncc(C(=O)Nc3c(C)cccc3Cl)s2)cc(N2CCN(CCO)CC2)n1 | 0.9
Cc1cn(-c2cc(NC(=O)c3ccc(C)c(Nc4nccc(-c5cccnc5)n4)c3)cc(C(F)(F)F)c2)cn1 | 0.3

# input compound: CC(C)C[C@H](NC(=O)CNC(=O)c1cc(Cl)ccc1Cl)B1OC(=O)C(CC(=O)O)(CC(=O)O)O1 [Ixazomib Citrate] ; wanted: its hsa-miR-146b-5p fold change, intracellular
3.2
